biological target: Gonadotropin-releasing hormone receptor (Homo sapiens); experiment: Antagonist activity at human recombinant GnRHR expressed in CHOK1 cells assessed as reduction in luminescence signal at 3 uM by luciferase reporter gene assay; assay type: functional, cell-based; details: CHO-K1
metric: Efficacy (%)

1. CCNC(=O)Nc1ccc(-c2nc3n(Cc4c(F)cccc4F)cc(C(=O)OCC)c(=O)n3c2CN(CC(=O)NCC(=O)NCC#Cc2ccccc2)Cc2ccccc2)cc1 ... 92
2. CCNC(=O)Nc1ccc(-c2nc3n(Cc4c(F)cccc4F)cc(C(=O)OCC)c(=O)n3c2CN(CC(=O)N2CCC(C(=O)NCC#Cc3cccc(C#CCNC(=O)C4CCN(C(=O)CN(Cc5ccccc5)Cc5c(-c6ccc(NC(=O)NCC)cc6)nc6n(Cc7c(F)cccc7F)cc(C(=O)OCC)c(=O)n56)CC4)c3)CC2)Cc2ccccc2)cc1 ... 68
3. CCNC(=O)Nc1ccc(-c2nc3n(Cc4c(F)cccc4F)cc(C(=O)OCC)c(=O)n3c2CN(CC(=O)N2CCC[C@H]2C(=O)NCC#Cc2ccc(C#CCNC(=O)[C@@H]3CCCN3C(=O)CN(Cc3ccccc3)Cc3c(-c4ccc(NC(=O)NCC)cc4)nc4n(Cc5c(F)cccc5F)cc(C(=O)OCC)c(=O)n34)cc2)Cc2ccccc2)cc1 ... 46
4. CCNC(=O)Nc1ccc(-c2nc3n(Cc4c(F)cccc4F)cc(C(=O)OCC)c(=O)n3c2CN(CC(=O)N2CCC[C@H]2C(=O)NCC#Cc2ccccc2)Cc2ccccc2)cc1 ... 87
5. CCNC(=O)Nc1ccc(-c2nc3n(Cc4c(F)cccc4F)cc(C(=O)OCC)c(=O)n3c2CN(CC(=O)NCCCC(=O)NCC#Cc2cccc(C#CCNC(=O)CCCNC(=O)CN(Cc3ccccc3)Cc3c(-c4ccc(NC(=O)NCC)cc4)nc4n(Cc5c(F)cccc5F)cc(C(=O)OCC)c(=O)n34)c2)Cc2ccccc2)cc1 ... 40

P. CCNC(=O)Nc1ccc(-c2nc3n(Cc4c(F)cccc4F)cc(C(=O)OCC)c(=O)n3c2CN(CC(=O)N2CCC(C(=O)NCC#Cc3ccccc3)CC2)Cc2ccccc2)cc1
Q. CCNC(=O)Nc1ccc(-c2nc3n(Cc4c(F)cccc4F)cc(C(=O)OCC)c(=O)n3c2CN(CC(=O)NCC(=O)NCC#Cc2ccc(C#CCNC(=O)CNC(=O)CN(Cc3ccccc3)Cc3c(-c4ccc(NC(=O)NCC)cc4)nc4n(Cc5c(F)cccc5F)cc(C(=O)OCC)c(=O)n34)cc2)Cc2ccccc2)cc1
For this pair, P and Q , which shows a numerically higher Efficacy? Lab log: write the label of the selected item as the result.
P
